- Target Or System: recombinant human SOS1 polypeptide (amino acids 560-1049) (Homo sapiens (Human))
- Method Summary: biochemical
- Assay type: binding
- Study Conditions: HTRF displacement, Cy5 labelled tracer, Morrison equation for competitive binding; read-out: Ki, Inhibition of Labeled Tracer Binding to SOS1
# Lookup of reported pKi keyed by entry
In textbook form, pKi equals minus log to base ten of the concentration in mol/L.

Solved entries (count: 2):
{"Compound": "COC1(C)CN(c2cc3c(N[C@H](C)c4cccc(C(F)(F)F)c4C)nnc(C)c3cn2)C1", "Recorded Number": 9.07}
{"Compound": "Cc1c([C@@H](C)Nc2nnc(C)c3cnc(N4CCC(C)(N(C)C)CC4)cc23)cccc1C(F)(F)F", "Recorded Number": 9.21}

Prompt line: Quick one: pKi of `Cc1c([C@@H](C)Nc2nnc(C)c3ccc(N4CCC5(CCN(C)C5=O)CC4)cc23)cccc1C(F)(F)F` ?
Response line: 9.37

Prompt line: Name the recorded pKi for `Cc1c(C#N)cccc1[C@@H](C)Nc1nnc(C)c2cnc(N3CCN4CCC[C@@H]4C3)cc12` .
Response line: 8.78

Prompt line: Consider the compound shown here: COc1c(C#N)cccc1[C@@H](C)Nc1nnc(C)c2cnc(N3CCN4CCOCC4C3)cc12 (stereo in doubt) What is its recorded pKi?
Response line: 7.90

Prompt line: Item under review: `Cc1c(C#N)cccc1[C@@H](C)Nc1nnc(C)c2c(F)cc(N3CCN4COCC[C@@H]4C3)cc12` . Reported pKi?
Response line: 8.68

Prompt line: Please look up its pKi: `Cc1c([C@@H](C)Nc2nnc(C)c3cnc(N4CC(C)(N(C)C)C4)cc23)cccc1C(F)(F)F`
Response line: 9.00

###

- Target Or System: recombinant human SOS1 polypeptide (amino acids 560-1049) (Homo sapiens (Human), UniProt Q07889)
- Sequence (Q07889 560-1049): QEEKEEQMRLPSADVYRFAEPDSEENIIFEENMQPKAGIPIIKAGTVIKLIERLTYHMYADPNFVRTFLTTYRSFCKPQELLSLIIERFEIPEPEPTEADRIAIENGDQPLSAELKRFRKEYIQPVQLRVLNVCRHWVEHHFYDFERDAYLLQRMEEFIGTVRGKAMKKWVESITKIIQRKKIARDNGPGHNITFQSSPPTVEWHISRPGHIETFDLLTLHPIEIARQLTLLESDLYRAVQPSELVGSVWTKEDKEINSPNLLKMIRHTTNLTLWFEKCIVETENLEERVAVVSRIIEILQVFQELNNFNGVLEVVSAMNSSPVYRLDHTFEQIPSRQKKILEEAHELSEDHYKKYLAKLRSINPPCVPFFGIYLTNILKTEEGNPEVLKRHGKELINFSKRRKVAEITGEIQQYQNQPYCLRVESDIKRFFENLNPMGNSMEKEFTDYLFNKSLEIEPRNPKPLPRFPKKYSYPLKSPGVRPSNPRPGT
- Method Summary: biochemical
- Assay type: binding
- Study Conditions: HTRF displacement, Cy5 labelled tracer, Morrison equation for competitive binding; read-out: Ki, Inhibition of Labeled Tracer Binding to SOS1
Quantity Measured: Ki (nM)
Write the number in nM without appending the unit.

Reference set, count: 3
{"Smiles Repr": "Cc1c([C@@H](C)Nc2nnc(C)c3ccc(N4CCNC5(CC5)C4)cc23)cccc1C(F)(F)F", "Ki / nM": 0.56}
{"Smiles Repr": "Cc1c(C(F)F)cccc1[C@@H](C)Nc1nnc(C)c2cnc(N3CCN4CCOC[C@@H]4C3)cc12", "Ki / nM": 0.79}
{"Smiles Repr": "Cc1c([C@@H](C)Nc2nnc(C)c3cnc(N4CC5(CCNC5=O)C4)cc23)cccc1C(F)(F)F", "Ki / nM": 0.97}

Now look at this entry.
Prompt line: # query: Ki of entry `Cc1nnc(N[C@H](C)c2cc(F)cc(C#N)c2F)c2cc(N3C[C@H]4C[C@@H]3CO4)ncc12`
Response line: 69.3

###

- Target Or System: recombinant human SOS1 polypeptide (amino acids 560-1049) (Homo sapiens (Human), UniProt Q07889)
- Method Summary: biochemical
- Assay type: binding
- Study Conditions: read-out: Ki, Inhibition of Labeled Tracer Binding to SOS1
Counter-ions that a name gives are not always drawn.
Below, each of the compounds is paired with its reported pKi value.
Here pKi is given on a logarithmic scale as minus log10 of the concentration in mol/L.

{"Compound": "Cc1c(C#N)cccc1[C@@H](C)Nc1nnc(C)c2ccc(N3CCNCC3)cc12 [Example 10-55, Formate salt]", "pKi": 9.12}
{"Compound": "Cc1c(C#N)cccc1[C@@H](C)Nc1nnc(C)c2ccc(N3CCC(N(C)C)CC3)cc12 [Example 10-57, Formate salt]", "pKi": 9.12}
{"Compound": "Cc1c([C@@H](C)Nc2nnc(C)c3ccc(OC[C@H]4CCCN4C)cc23)cccc1C(F)(F)F [Example 10-25, hydrochloride salt]", "pKi": 8.83}
{"Compound": "Cc1c(C#N)cccc1[C@@H](C)Nc1nnc(C)c2ccc(N3CC4(CCN(C)C4)C3)cc12 [Example 10-73, formate salt]", "pKi": 9.20}
{"Compound": "Cc1nnc(N[C@H](C)c2cccc3ccccc23)c2cc(N3CCNCC3)ccc12 [Example 10-43, formate salt]", "pKi": 8.95}
{"Compound": "Cc1c([C@@H](C)Nc2nnc(C)c3ccc(N4CCC(N5CCC5)CC4)cc23)cccc1C(F)(F)F [Example 10-30, hydrochloride salt]", "pKi": 9.39}

Prompt line: Can you look up the measured pKi of `Cc1nnc(N[C@H](C)c2cccc(C(F)(F)CO)c2)c2cc(N3CCOCC3)ncc12` for me?
Response line: 9.15

###

Reported pKi values are given for each entry in this list.
- Target Or System: recombinant human SOS1 polypeptide (amino acids 560-1049) (Homo sapiens (Human), UniProt Q07889)
- Method Summary: biochemical
- Assay type: binding
- Study Conditions: HTRF displacement, Cy5 labelled tracer, Morrison equation for competitive binding; read-out: Ki, Inhibition of Labeled Tracer Binding to SOS1
Please treat pKi as minus the base-10 logarithm of the molar concentration.

{"Molecule": "Cc1c(C#N)cccc1[C@@H](C)Nc1nnc(C)c2c(F)cc(N3CC(C)(O)C3)cc12", "pKi": 8.24}
{"Molecule": "Cc1c([C@@H](C)Nc2nnc(C)c3ccc(N4CCN5C(=O)CC[C@H]5C4)cc23)cccc1C(F)(F)F", "pKi": 9.31}
{"Molecule": "CNC1CCN(c2ccc3c(C)nnc(N[C@H](C)c4cccc(C(F)(F)F)c4C)c3c2)CC1", "pKi": 10.15}
{"Molecule": "Cc1nnc(N[C@H](C)c2cc(N)cc(C(F)(F)F)n2)c2cc(N3CC(C)(O)C3)ccc12", "pKi": 7.09}
{"Molecule": "Cc1c(C#N)cc(F)cc1[C@@H](C)Nc1nnc(C)c2cnc(N3CCN4CCOC[C@@H]4C3)cc12", "pKi": 7.96}
{"Molecule": "Cc1nnc(N[C@H](C)c2cccc(C(F)F)c2F)c2cc(N3CCN4CCOC[C@@H]4C3)ncc12", "pKi": 8.97}
{"Molecule": "Cc1cccc([C@@H](C)Nc2nnc(C)c3cnc(N4CC(C)(N(C)C)C4)cc23)c1F", "pKi": 7.94}
{"Molecule": "Cc1c([C@@H](C)Nc2nnc(C)c3cnc(N4CCC4)cc23)cccc1C(F)(F)F", "pKi": 8.89}
{"Molecule": "Cc1c(C#N)cccc1[C@@H](C)Nc1nnc(C)c2cnc(N3CCNCC3)cc12", "pKi": 8.62}
{"Molecule": "Cc1nnc(N[C@H](C)c2cc(F)cc(C#N)c2)c2cc(N3CCOCC3)ncc12", "pKi": 7.25}

Prompt line: Need pKi of `Cc1c([C@@H](C)Nc2nnc(C)c3cnc(N4CC5(CCN(C)C5=O)C4)cc23)cccc1C(F)(F)F` , thanks.
Response line: 9.06

Prompt line: Dear colleague, I am looking for the recorded pKi of the following molecule: `Cc1nnc(N[C@H](C)c2cc(F)cc(C#N)c2F)c2cc(N3CC4CC(C3)O4)ncc12`
Response line: 7.41

###

- Test system: pERK in MKN1 cells
- Method Summary: cells
- Type: cell-based
- Study Conditions: Homo sapiens, MKN-1
Counter-ions that a name gives are not always drawn.
Quantity Measured: IC50 (µM)
Report the figure in µM without appending any unit label.

Examples with their reported IC50 follow.
{"Molecule": "Cc1c(C#N)cccc1[C@@H](C)Nc1nnc(C)c2ccc(N3CC4(COCCN4C)C3)cc12 [Example 10-79, Formate salt]", "Readout Unit": "µM", "Recorded Number": 0.016}
{"Molecule": "Cc1c([C@@H](C)Nc2nnc(C)c3ccc(N4CC(N(C)C)C4)cc23)cccc1C(F)(F)F [Example 10-46, formate salt]", "Readout Unit": "µM", "Recorded Number": 0.157}
{"Molecule": "Cc1c([C@@H](C)Nc2nnc(C)c3ccc(N4C5CCC4CN(C)C5)cc23)cccc1C(F)(F)F [Example 10-28, hydrochloride salt]", "Readout Unit": "µM", "Recorded Number": 0.161}
{"Molecule": "Cc1c([C@@H](C)Nc2nnc(C)c3ccc(N4CC5CCC(C4)N5C)cc23)cccc1C(F)(F)F [Example 10-29, hydrochloride salt]", "Readout Unit": "µM", "Recorded Number": 0.07}
{"Molecule": "Cc1c([C@@H](C)Nc2nnc(C)c3ccc(N4CCC(N5CCC(F)(F)C5)CC4)cc23)cccc1C(F)(F)F [Example 10-49, Formate salt]", "Readout Unit": "µM", "Recorded Number": 0.107}
{"Molecule": "Cc1c([C@@H](C)Nc2nnc(C)c3ccc(N4CC5(CCN(C)C5)C4)cc23)cccc1C(F)(F)F [Example 10-41, hydrochloride salt]", "Readout Unit": "µM", "Recorded Number": 0.03}
{"Molecule": "Cc1c(C(F)F)cccc1[C@@H](C)Nc1nnc(C)c2ccc(N3CCC(N4CCC4)CC3)cc12 [Example 10-44, hydrochloride salt]", "Readout Unit": "µM", "Recorded Number": 0.053}
{"Molecule": "Cc1c([C@@H](C)Nc2nnc(C)c3ccc(N4CCC5(CCN(C)C5)CC4)cc23)cccc1C(F)(F)F [Example 10-37, hydrochloride salt]", "Readout Unit": "µM", "Recorded Number": 0.055}
{"Molecule": "Cc1c([C@@H](C)Nc2nnc(C)c3ccc(N4CCC5(CCNC5)CC4)cc23)cccc1C(F)(F)F [Example 10-36, hydrochloride salt]", "Readout Unit": "µM", "Recorded Number": 0.079}
{"Molecule": "Cc1c([C@@H](C)Nc2nnc(C)c3ccc(N4CCC(N(C)C)C4)cc23)cccc1C(F)(F)F (stereo in doubt) [Example 10-27, hydrochloride salt]", "Readout Unit": "µM", "Recorded Number": 0.154}

Prompt line: Param readout= IC50; system= pERK in MKN1 cells; entry= Cc1c([C@@H](C)Nc2nnc(C)c3ccc(N4CCC5(CCNCC5)C4=O)cc23)cccc1C(F)(F)F [Example 10-39, hydrochloride salt] ; returns value.
Response line: 0.11

Prompt line: Entry Cc1c([C@@H](C)Nc2nnc(C)c3ccc(N4CC[C@@H](N(C)C)C4)cc23)cccc1C(F)(F)F [Example 10-26, hydrochloride salt] , system pERK in MKN1 cells: what IC50 was measured?
Response line: 0.164

Prompt line: Request - read-out IC50 | tested on pERK in MKN1 cells | molecule Cc1c(C#N)cccc1[C@@H](C)Nc1nnc(C)c2ccc(N3CC4(CCN(C)C4)C3)cc12 [Example 10-73, formate salt]
Response line: 0.049

Prompt line: Form field - read-out: IC50; system: pERK in MKN1 cells; submitted item: Cc1nnc(N[C@H](C)c2cccc(C(F)F)c2F)c2cc(N3CCN4CCOC[C@@H]4C3)ccc12 [Example 10-86, Formate salt]
Response line: 0.021

Prompt line: Look up IC50 with pERK in MKN1 cells for this molecule: Cc1c(C#N)cccc1[C@@H](C)Nc1nnc(C)c2ccc(N3CCN4CCOC[C@@H]4C3)cc12 [Example 10-56, Formate salt]
Response line: 0.026
